methodNotes: qHTS assay to identify small molecule agonists of the peroxisome proliferator-activated receptor delta (PPARd) signaling pathway - cell viability counter screen (AID 743211); further: on the % scale 0 is the no-effect control and ±100 the full control effect; nearly all actives have a fitted effect of over 55% in size
conditionDescription: PPARd-bla HEK293H viability, CellTiter-Glo luminescence, 17 h; series mostly up to 62.6 µM
Results filed as inconclusive are left out. The source made the active and inactive calls. The call rests on the fitted dose curve; in most records, active means well fitted cell-killing curve with a large enough effect in the repeat runs; inconclusive means weak or mixed curves; inactive means no such curve, though single readings can be large or run the other way.
assayMetric: activity change, negative = cytotoxicity

{"compound": "C=CCCC", "activity change, negative = cytotoxicity": "inactive"}
{"compound": "CO[C@@H]1COCC[C@@H]1N[C@@H]1CC[C@@](C(=O)N2CCc3ncc(C(F)(F)F)cc3C2)(C(C)C)C1", "activity change, negative = cytotoxicity": "inactive"}
{"compound": "Cc1c(Nc2ncccc2C(=O)O)cccc1C(F)(F)F", "activity change, negative = cytotoxicity": "inactive"}
{"compound": "O=C(O)c1ccccc1-n1cc(C(=O)O)c(=O)c2cc(Nc3c(F)cc(F)cc3Cl)c(Cl)cc21", "activity change, negative = cytotoxicity": "inactive"}
{"compound": "Clc1ccccc1-c1nc(-c2ccncc2)no1", "activity change, negative = cytotoxicity": "inactive"}
{"compound": "CC(=O)c1cccnc1", "activity change, negative = cytotoxicity": "inactive"}
{"compound": "CC(C)(C(=O)O)c1ccc(C(O)CCCN2CCC(C(O)(c3ccccc3)c3ccccc3)CC2)cc1 (configuration not stated)", "activity change, negative = cytotoxicity": "inactive"}
{"compound": "CCC1=C(C)CN(C(=O)NCCc2ccc(S(=O)(=O)NC(=O)NC3CCC(C)CC3)cc2)C1=O (configuration not stated)", "activity change, negative = cytotoxicity": "inactive"}

*Q* Please report the recorded activity change, negative = cytotoxicity for `O=C1C=CCCC1` .
*A* inactive

*Q* What measured activity change, negative = cytotoxicity goes with `CCCCCCCCCCCCCCCCCCCl` ?
*A* 0.407% [at 5.95 µM] (inactive)

*Q* Given the entry `COC=O` , report its measured activity change, negative = cytotoxicity.
*A* -28.1% [at 5.95 µM] (inactive)

*Q* Param item = `O=C(O)c1ccc2cc(O)ccc2c1` ; retrieve measured activity change, negative = cytotoxicity.
*A* inactive

---

system: Luciferin 4-monooxygenase (Photinus pyralis) (UniProt P08659)
Sequence (P08659 whole entry, looked up): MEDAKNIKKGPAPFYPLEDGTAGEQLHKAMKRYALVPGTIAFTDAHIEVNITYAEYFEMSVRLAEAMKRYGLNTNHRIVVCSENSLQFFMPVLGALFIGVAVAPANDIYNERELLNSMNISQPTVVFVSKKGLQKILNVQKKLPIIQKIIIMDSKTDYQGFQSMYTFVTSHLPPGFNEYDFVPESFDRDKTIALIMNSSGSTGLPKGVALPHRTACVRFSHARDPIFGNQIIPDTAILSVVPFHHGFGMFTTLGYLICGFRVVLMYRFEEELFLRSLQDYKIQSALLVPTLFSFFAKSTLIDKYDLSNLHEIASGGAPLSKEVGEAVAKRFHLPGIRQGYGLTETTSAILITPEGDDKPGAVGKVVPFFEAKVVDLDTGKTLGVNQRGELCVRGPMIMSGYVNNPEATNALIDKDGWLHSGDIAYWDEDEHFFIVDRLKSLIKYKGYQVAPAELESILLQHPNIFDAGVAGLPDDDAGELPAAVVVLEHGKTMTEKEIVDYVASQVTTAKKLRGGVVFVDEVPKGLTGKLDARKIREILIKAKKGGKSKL
methodNotes: qHTS assay to identify small molecule inhibitors of firefly luciferase (AID 1224835); further: nearly all actives have a fitted effect of over 25% in size
conditionDescription: purified P. pyralis luciferase, luminescence inhibition; series mostly up to 115 µM
Inconclusive results are not listed. Activity calls are given as the source filed them. The call rests on the fitted dose curve; in most records, active means well fitted inhibition curve with a large enough effect in the repeat runs; inconclusive means weak or mixed curves; inactive means flat fitted curve, though single readings scatter.
Bench note: report the call from active, inactive

Illustrative cases are given below, each with its answer.
{"compound": "S=c1[nH][nH]c(=S)s1", "label": "active"}
{"compound": "C=CC(=O)OCCCCCCCCCC", "label": "inactive"}
{"compound": "Cc1cccc(C)c1NC(=O)CN1CCCC1", "label": "inactive"}
{"compound": "Nc1ccc(C(=O)Oc2ccccc2)c(O)c1", "label": "active"}
{"compound": "CC(Cc1ccccc1)(NC(=O)CN)c1ccccc1 (centres undefined)", "label": "inactive"}

*Q* In this assay, the call recorded for `O=[N+]([O-])c1ccccc1CCO` was what?
*A* inactive

*Q* Hello, I am checking results. What call was entered for CC(O)CN (centres undefined) ?
*A* inactive

---

system: Cytochrome P450 3A4 (Homo sapiens) (UniProt P08684)
Sequence (P08684 whole entry, looked up): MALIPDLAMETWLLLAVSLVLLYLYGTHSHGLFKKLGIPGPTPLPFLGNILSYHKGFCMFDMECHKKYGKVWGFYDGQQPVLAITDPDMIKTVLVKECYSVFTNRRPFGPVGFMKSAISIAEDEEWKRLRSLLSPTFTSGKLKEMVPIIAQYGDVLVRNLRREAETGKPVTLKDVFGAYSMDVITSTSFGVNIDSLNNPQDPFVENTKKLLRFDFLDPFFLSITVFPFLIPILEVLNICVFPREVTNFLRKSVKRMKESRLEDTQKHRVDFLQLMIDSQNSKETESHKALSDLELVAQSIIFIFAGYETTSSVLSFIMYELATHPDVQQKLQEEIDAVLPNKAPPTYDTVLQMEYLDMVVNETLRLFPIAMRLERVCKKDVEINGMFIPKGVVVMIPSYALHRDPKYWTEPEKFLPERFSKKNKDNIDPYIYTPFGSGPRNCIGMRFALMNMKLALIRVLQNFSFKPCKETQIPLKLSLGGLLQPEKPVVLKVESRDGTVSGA
methodNotes: Cytochrome P450 Family 3 Subfamily A Member 4 (CYP3A4) small molecule antagonists: luciferase reporter qHTS assay (AID 1671201); further: nearly all actives have a fitted effect of over 50% in size; further: potency means the concentration at half of the fitted maximal effect
conditionDescription: P450-Glo CYP3A4 enzyme, luciferin luminescence, 1 h; series mostly up to 115 µM
Inconclusive results are not listed. Activity calls are given as the source filed them. Calls follow the shape of the dose curve; as a rule, active = well fitted inhibition curve with a large enough effect in the repeat runs; inconclusive = weak or mixed curves; inactive = no such curve, though single readings can be large or run the other way.
assayMetric: Potency

Examples with their reported Potency follow.
{"compound": "OCCCO", "result": "inactive"}
{"compound": "Nc1ccc(-c2ccc(F)cc2)cc1", "result": "11.2 µM (active)"}
{"compound": "Nc1ccccc1Nc1ccccc1", "result": "31.8 µM (active)"}
{"compound": "CCOC(C)OCC", "result": "inactive"}
{"compound": "NC(=O)c1ccccc1C(N)=O", "result": "63.5 µM (active)"}
{"compound": "CC(C)(C)N", "result": "inactive"}
{"compound": "Cc1ccc(Cl)c(OCC(O)CNC(C)(C)C)c1 (configuration not stated)", "result": "inactive"}
{"compound": "CCC(CC)C(=O)O", "result": "inactive"}

*Q* Would you mind telling me what Potency value was observed for CCCCCC1CCC(=O)O1 (configuration not stated) ?
*A* inactive

*Q* Potency lookup needed for `Clc1ccccc1-c1nc(-c2ccncc2)no1` , thanks.
*A* 30.9 µM (active)

*Q* Fill blank: measured Potency of the compound `Cc1ccccc1CCO` is ____.
*A* inactive

*Q* // Potency lookup, key: `COC(=O)Cc1cccc2ccccc12`
*A* inactive

*Q* Requested field: Potency. Item: `CC1(C)C(=O)NC(=O)N1CO`
*A* inactive

*Q* What value of measured Potency is listed for `COc1cccc([C@H](O)C2CCN(CCc3ccc(F)cc3)CC2)c1OC` ?
*A* inactive

*Q* Quick check: Potency of `O=C1C=CCCC1` ?
*A* inactive

*Q* Item under review: `O=C(O)CNc1ccccc1` . Reported Potency?
*A* inactive

*Q* Sample CCC(C)CCCC(C)(C)O (configuration not stated) — what was its Potency?
*A* inactive

---

methodNotes: qHTS assay to identify small molecule agonists of the vitamin D receptor (VDR) signaling pathway - cell viability counter screen (AID 743224); further: on the % scale 0 is the no-effect control and ±100 the full control effect; nearly all actives have a fitted effect of over 50% in size
conditionDescription: VDR-bla HEK293T viability, CellTiter-Glo luminescence, 16 h; series mostly up to 62.6 µM
Inconclusive results are not listed. Active and inactive are the calls of the source. The call rests on the fitted dose curve; in most records, active means well fitted cell-killing curve with a large enough effect in the repeat runs; inconclusive means weak or mixed curves, or effect the other way; inactive means no such curve, though single readings can be large or run the other way.
assayMetric: activity change, negative = cytotoxicity

// worked examples, activity change, negative = cytotoxicity included
{"molecule": "CCCCCCOC(=O)c1ccccc1", "activity change, negative = cytotoxicity": "inactive"}
{"molecule": "O=[N+]([O-])c1cccc(I)c1", "activity change, negative = cytotoxicity": "inactive"}
{"molecule": "CCCc1nc(C)c2c(=O)[nH]c(-c3cc(S(=O)(=O)N4CCN(CC)CC4)ccc3OCC)nn12", "activity change, negative = cytotoxicity": "inactive"}
{"molecule": "O=C1OC(=O)C2CC=CCC12 (configuration not stated)", "activity change, negative = cytotoxicity": "inactive"}
{"molecule": "CC(C(=O)O)c1ccc(/C=C2\\CCCCC2=O)cc1 (configuration not stated)", "activity change, negative = cytotoxicity": "inactive"}

*Q* Item under review: `CC(C)C/C=C(\C=O)c1ccccc1` . Reported activity change, negative = cytotoxicity?
*A* inactive

*Q* Recorded activity change, negative = cytotoxicity for `C(/C=C/C=C/Nc1ccccc1)=Nc1ccccc1` , please?
*A* inactive

---

methodNotes: qHTS assay to identify aromatase inhibitors - cell viability counter screen (AID 743084);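 further: cells stimulated with testosterone during compound exposure; on the % scale 0 is the no-effect control and ±100 the full control effect; nearly all actives have a fitted effect of over 55% in size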
conditionDescription: MCF-7 aro ERE viability, CellTiter-Fluor, 24 h; series mostly up to 70.3 µM
Records with an inconclusive call do not appear. Activity calls are given as the source filed them. Calls follow the shape of the dose curve; as a rule, active = well fitted cell-killing curve with a large enough effect in the repeat runs; inconclusive = weak or mixed curves, or effect the other way; inactive = no such curve, though single readings can be large or run the other way.
Log the outcome using a class from Yes = active, No = inactive

{"compound": "CCCc1nc(C)c2c(=O)[nH]c(-c3cc(S(=O)(=O)N4CCN(CC)CC4)ccc3OCC)nn12", "label": "No"}
{"compound": "CC1(C)C(=O)NC(=O)N1CO", "label": "No"}
{"compound": "C=CC(C)(O)CC/C=C(/C)CCC=C(C)C (stereo not drawn)", "label": "No"}
{"compound": "O=S(=O)(O)c1cc(Cl)c(Cl)cc1Cl", "label": "No"}
{"compound": "O=c1[nH][nH]c2ccccc12", "label": "No"}

*Q* Hi, do you know how `O=C(O)c1ccccc1[N+](=O)[O-]` came out in this test?
*A* No

*Q* I would be grateful if you could indicate the recorded call for `Oc1ccc(Oc2ccccc2)cc1` .
*A* No

*Q* For `CCCCOC(=O)CC#N` , what call appears in the results of this test?
*A* No

---

methodNotes: qHTS assay to identify small molecule agonists of the RXR signaling pathway - cell viability counter screen (AID 1159529); further: nearly all actives have a fitted effect of over 50% in size
conditionDescription: RXR-alpha-bla HEK293T viability, CellTiter-Glo, 16 h; series mostly up to 76.8 µM
Inconclusive results are not listed. Active and inactive are the calls of the source. The call rests on the fitted dose curve; in most records, active means well fitted cell-killing curve with a large enough effect in the repeat runs; inconclusive means weak or mixed curves, or effect the other way; inactive means no such curve, though single readings can be large or run the other way.
Reply using exactly one outcome from y (active), n (inactive)

Example entries and their recorded answers appear below.
{"compound": "O=C(O)c1cc(C(=O)O)cc([N+](=O)[O-])c1", "label": "n"}
{"compound": "CC(C(=O)O)c1ccc2c(c1)Cc1cccnc1O2 (stereo not drawn)", "label": "n"}
{"compound": "CCOc1ccccc1O", "label": "n"}
{"compound": "CC1(C)CC(=O)CC(C)(C)N1", "label": "n"}
{"compound": "CC(C)C[C@H](NC(=O)[C@H](Cc1ccccc1)NC(=O)c1cnccn1)B(O)O", "label": "n"}
{"compound": "CC1(C)[C@@H]2CC[C@]3(C2)[C@@H]1C(=O)CCC3(C)C", "label": "n"}
{"compound": "CCC[Si](OC)(OC)OC", "label": "n"}
{"compound": "Cc1ccc2c(Cl)cc(Cl)c(O)c2n1", "label": "n"}
{"compound": "C/C(=C(\\CCO)SS/C(CCO)=C(\\C)N(C=O)Cc1cnc(C)nc1N)N(C=O)Cc1cnc(C)nc1N", "label": "n"}
{"compound": "C[C@H]1C[C@H]2[C@@H]3CCC4=CC(=O)C=C[C@]4(C)[C@@]3(F)[C@@H](O)C[C@]2(C)[C@@]1(O)C(=O)COP(=O)(O)O", "label": "n"}

*Q* Fill in: this test's call for `CC(=O)c1ccc(Cl)c(Cl)c1Cl` is ___
*A* n

*Q* // return assay outcome for `Cc1ccccc1CCO`
*A* n

*Q* Just curious, what result did `CCOc1ccc(NC(C)=O)cc1N` get here?
*A* n

*Q* Returns: the outcome recorded for `FC(F)(Cl)C(F)(Cl)Cl` in this assay.
*A* n

*Q* Outcome logged for `O=C(O)c1c2ccccc2cc2ccccc12` in this assay:
*A* n

*Q* Query: recorded result category for `CC(=O)c1cccnc1` in this test
*A* n

*Q* Given `O=C(OCCN1CCOCC1)c1cccnc1Nc1cccc(C(F)(F)F)c1` , state the outcome it received in this test.
*A* n

*Q* Call for entry `O=Cc1ccc(Cl)c([N+](=O)[O-])c1` :
*A* n

*Q* For `CCOC(=O)CC(O)(CC(=O)OCC)C(=O)OCC` , which call appears in the assay record?
*A* n

*Q* Returns: the outcome recorded for `CC(=O)Nc1cccc(N)c1` in this assay.
*A* n

*Q* So what was the verdict on CC(O)C(C)O (stereo not drawn) in this test?
*A* n

*Q* Recorded test outcome, item `O=P(c1ccccc1)(c1ccccc1)c1ccccc1`
*A* n

*Q* Hey, what did the test say about CCOc1ccc2c(c1)C(C)CC(C)(C)N2 (stereo not drawn) ?
*A* n

*Q* Would you mind telling me which call this test gave `CCCc1ccc(OC)cc1` ?
*A* n

*Q* For `COc1ccc(C(=O)c2ccc(C)cc2)c(O)c1` , which call appears in the assay record?
*A* n

*Q* // param item: `Nc1cccc2c(=O)[nH][nH]c(=O)c12` ; yields the recorded call
*A* y

*Q* Short answer needed: outcome of this test for N#CCCCC(C#N)CCC#N (stereo not drawn) ?
*A* n

*Q* Hi team, can someone confirm the assay call for `CCCCCCCCOCCCN` ?
*A* n

*Q* Short answer needed: outcome of this test for `O=C(Nc1ccccc1)c1cc([N+](=O)[O-])ccc1Cl` ?
*A* n

*Q* # lookup: test call for `OCCc1ccncc1`
*A* n
